tested on: mouse leukemia, P388 cells; test: In vitro growth inhibition of P388 cells, 72 hours; format: cell-based; details: P388, 72 hours, test compounds as trifluoroacetate, read-out: IC50
parameter: IC50 (µg/mL)

COc1cccc2c1C(=O)c1c(O)c3c(c(O)c1C2=O)C[C@@](O)(C(=O)CO)C[C@@H]3O[C@@H]1O[C@@H](C(F)(F)F)[C@@H](OC(=O)[C@@H](N)Cc2ccccc2)[C@@H](OC(=O)[C@@H](N)Cc2ccccc2)[C@H]1F [Compound 37] | 0.016
COc1cccc2c1C(=O)c1c(O)c3c(c(O)c1C2=O)C[C@@](O)(C(=O)CO)C[C@@H]3O[C@@H]1O[C@@H](C)[C@@H](OC(=O)[C@@H](N)CC(C)C)[C@@H](OC(=O)[C@@H](N)CC(C)C)[C@H]1F [Compound 11e] | 0.032
COc1cccc2c1C(=O)c1c(O)c3c(c(O)c1C2=O)C[C@@](O)(C(=O)CO)C[C@@H]3O[C@H]1C[C@H](OC(=O)[C@@H](N)Cc2ccccc2)[C@H](OC(=O)[C@@H](N)Cc2ccccc2)[C@H](C(F)(F)F)O1 [Compound 49] | 0.02
COc1cccc2c1C(=O)c1c(O)c3c(c(O)c1C2=O)C[C@@](O)(C(=O)CO)C[C@@H]3O[C@@H]1O[C@@H](C)[C@@H](OC(=O)[C@@H](N)Cc2ccccc2)[C@@H](OC(=O)[C@@H](N)Cc2ccccc2)[C@H]1F [Compound 11c] | 0.026

* * *

system: Leukemia L-1210 cells; experiment: Antitumor test against leukemia L-1210 in CDF1 mice (T/C, %); assay type: in vivo, mouse (CDF1); settings: 0.15 mg/kg/day i.p., 9 days
Collected % Increase in life-span (T/C, %) values appear next to each entry.
parameter: % Increase in life-span (T/C, %)

COc1cccc2c1C(=O)c1c(O)c3c(c(O)c1C2=O)C[C@@](O)(C(=O)CO)C[C@@H]3O[C@@H]1O[C@@H](C)[C@@H](OC(=O)CN)[C@@H](OC(=O)CN)[C@H]1F [Compound 11a] | 111
COc1cccc2c1C(=O)c1c(O)c3c(c(O)c1C2=O)C[C@@](O)(C(=O)CO)C[C@@H]3O[C@@H]1O[C@@H](C)[C@@H](OC(=O)[C@@H](N)Cc2ccccc2)[C@@H](OC(=O)[C@@H](N)Cc2ccccc2)[C@H]1F [Compound 11c] | 123
COc1cccc2c1C(=O)c1c(O)c3c(c(O)c1C2=O)C[C@@](O)(C(C)=O)C[C@@H]3O[C@@H]1O[C@@H](C)[C@@H](O)[C@@H](O)[C@H]1F [FT-DM, reference compound] | 105
COc1cccc2c1C(=O)c1c(O)c3c(c(O)c1C2=O)C[C@@](O)(C(=O)CO)C[C@@H]3O[C@H]1C[C@H](N)[C@H](O)[C@H](C)O1 [Adriamycin, adriamycin, reference compound] | 140
COc1cccc2c1C(=O)c1c(O)c3c(c(O)c1C2=O)C[C@@](O)(C(=O)CO)C[C@@H]3O[C@@H]1O[C@@H](C)[C@@H](OC(=O)[C@H](C)N)[C@@H](OC(=O)[C@H](C)N)[C@H]1F [Compound 11b] | 115
COc1cccc2c1C(=O)c1c(O)c3c(c(O)c1C2=O)C[C@@](O)(C(=O)CO)C[C@@H]3O[C@@H]1O[C@@H](C)[C@@H](O)[C@@H](O)[C@H]1F [FT-ADM, reference compound] | 127
